experiment: soluble fraction after stress (log2 fold change); higher = more stays soluble; pooled small domains, quantitative proteomics; details: stress: 75 degC;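 note: 20 min heating vs room temperature control held 20 min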
parameter.measured: soluble fraction (log2)
Give bare numbers.

Would you please look over these solved cases?
HMSEKLTLEAANEAAGMRIDKWLAMQLPELSRSRIEALISGGGVVVNGKNPSKSLKLKGGEQIELEIPE
-0.0607
HMSVDVEGNQRIPTEQVLSELRDVGVSFGKRVSGLNADTIRNQMIINNDEIAWLGVNVRGSRVYVEITERI
0.125
HMQQLDDDTVAYVADNGIAVKSKNGKELSVDTSGLSYDIIMDMFRNLPRNGDFFSSKYWSDNIQKAQAR
0.447

Go through the items and report each one's soluble fraction (log2).
1. HMSNIVNYEVYVYQNDAWDLLARYPSEKRAEAIEYAKSTEFSLNRPTKVIRETYDLDTQKFQEALIYLSE
2. HMSVPSVAAVREQTGLSQVKFASLLGVSVRTLQEWEQGRRAPSGAARTLLMVAAKNPQALLEV
3. HMTPSTVQVHVAGAVKNPGVYVLLENARNIDAITAAGGATSEADLERINLSEFIRDGQRVYVPYKGDPI

[-0.743, -1.31, 0.459]

For each listed entry, give its soluble fraction (log2).
1. HMSNGFFELKTSQQDELIDLIDSHTNFVRTKIEGELITAFLKLPMDAEEFNKLLFTNGIILSHLVKRK
2. HMNLGNLLKIYRKNSLLTQQQVADALNINRTTYTYYETGKTEPSIDTLHKLIKIFGITYDDLL
3. HMITMWYYKKDGNIIGPASARKIASMRELGIITDSTPVSRKRNAKNWETFGGLSEKINLESSQWD
4. HMKRQATLQIGSKRFGMDDLYFKFTVPFEDSEKLGTATIEAYNLSPATRNSIKKGMPIILNAGYEGDI
5. HMEGYLYLSESQNELILKNLKTPLKYNLYNASGKLIKKGNIKNTLDISELPKGVYIFTSSDNSFSKKFLKT

1. -0.713
2. -2.88
3. -1.98
4. -0.425
5. -1.55

----------
Can you tell me soluble fraction (log2) for the items I'm about to list?
experiment: soluble fraction after stress (log2 fold change); higher = more stays soluble; pooled small domains, quantitative proteomics; settings: stress: 75 degC
Numbers only.

The examples below pair each entry with its known result.
HMGGEGQIEIREREGIPAEAWVDGVMRGQTPLRVEHVSIGTRRVELRAEGRPPVAADVLVRPTVTALVELS
0.263
HMETEAGIKAYLSSSMIKGIGPVTAQRIVERFGKRTLYVLDQMPEKLLDISGISEAKLEEILNGYRKS
-0.536
HMETQVKVPNVVGMTQSKAIAKLKESKLDYEVQEQKHDGDKGKVVDQSEAEGTYVDRGTKVIIYVSTGE
-0.437
HMLDGFEVGMTVMRKPGTETGFTGWPPFADKDEFPVIERIDTSDSTLLLRFNDTSWWINASLVEPSDV
-2.19
HMNSTRAPYLLDFEEDAAIREARRAGLVPRIARQPSGEPVGRVILQSHDYDYPMKRGDTILITISSG
-0.833
HMFTIGENIRDLRLERAITQEQLAEQLNVSAPAVSKWERGEAYPDITLVPKLAEILGVSTDKLFGVD
0.0273

Hi team, please reply with soluble fraction (log2) for each item in this list.
1. HMSEYTRGELVSSLEAGEVAAVSIRPNRETPTGEAQIVLSDGQHRVLYVTDVREIEELVSSYGLNPQVEK
2. HMDYTPIEVKDLPQAIQDALTKNFSEYTVKSAAYQEDEDGVKIYQVTVVDEEGTEANIFFTEKGE

[0.196, 0.206]

----------
Provide the recorded soluble fraction (log2) for the entries that follow.
experiment: soluble fraction after stress (log2 fold change); higher = more stays soluble; pooled small domains, quantitative proteomics; conditions: stress: 75 degC
One number for each entry.

Here's what some known entries look like.
HMAENMNAALRVSSLINQIGTVNAKAKDRIESARKAYDALSEAQKAYVANLTTLETAETSLSKL
0.0786
HMIEYILDYLANRGVYAASQGEQQQMEDGIARYLQENGLEDGNTGAYYQKYVSNHLQQISASDLKAYFLN
-0.946
HMNDVHELPYSSFIEMVERGHVISVTVKHINIEFESTKNENYRTIAPQAMTPPYLELLLKNKDSVKVTFLP
-1.98
HMSTLKSALDEIPGIGAARKRALLNHFGSTRVISSVGVKDLEQVEGVSKKIALLIYGYFHDK
-2.57
HMGLKDTEVYMPDVRGLIEEEAQTKLKASFLTMKVSYTSSDEVKKGYVISQAPSADSVVLKGASVTVIVS
-2.56

I'm hoping you can list soluble fraction (log2) for every sequence here, please.
1. HMIFEEDILKEFRGSLIFITHDRRFLDNIATRIIELDRGKLLSFPGNFSAYKKAKNEQLANEAVENA
2. HMEADERRNEILDAAETLITEKGYSKTTIIDILNQVGIAKGTFYYYFKSKEEVMDAIIERFI
3. HMSKQQVRSILDDIPNIGETRRKALMRQFQSLEKIREASVGQLREVDGMNEKAAQSVYQFFHK

[-0.439, -2.41, -0.0426]

----------
test: soluble fraction after stress (log2 fold change); higher = more stays soluble; pooled small domains, quantitative proteomics; settings: stress: 75 degC
Provide the reported soluble fraction (log2) of each item.
One number for each entry.

Use the examples below as a reference point.
HMSTRLIGEIGVVTKDLGAGLKENGSIQIGREEWPAETKDMEHIPMGTRVKVIHIEGTRLVVEA
-0.561
HMALIGSNLRHLRNERKLSQQELADLIRVGRTTIANIEANLANPGHKTLLEIVKVFDITIDELLHTDLTK
-1.79
HMSHDTLVYRLAQMLVKLNQGEKLDPQQLAEEFGVNLRTIQRDLNVRFAYLQLEKTDGRYHLDPTFL
-1.46

Okay, now this sequence:
Suppose we examine the sequence HMGSLNDQVMKYIDALPSAFNKRELDFLIERGVKEFALNGEYLEKAIINEYKLTADTYHRER ; what soluble fraction (log2) value has been reported?
0.0903

----------
assay: soluble fraction after stress (log2 fold change); higher = more stays soluble; pooled small domains, quantitative proteomics; conditions: stress: 75 degC
Think of -0.1 as a floor: if soluble fraction (log2) stands on it or above, it is fulfilled; beneath it, not fulfilled.

Take a look at these entries with their results.
HMNIKYDFPTNSPLEMMRNLFDSNSQIINDLKDGFAMANSLNEQGLANFFAERIDKHQFWSWQLSASL
not fulfilled
HMNGDYFEYRYAVNGSRSTPPSLSKTSRNPSGWSTTVPTVGNLQYLWFTVAKINGETNSLIQNWSTPARQT
not fulfilled
HMQDTQAEEGETLLDALRRIHPESSTGTLRRMLTQGRVQLDGDSVHAAKTVLSAGQRVEVVAR
not fulfilled
HMGKAYMVPDVKNKSVNQAQLLLADKHMNGVVVDSSYVKELPAGIVLDQTPVGGMKVKEGRTVYLTINSD
fulfilled

Could you please find out whether HMDSLARKTVNGAEFYIYPVESAEGFYSLRRKFGVSQEEVIKYNPSAQNGLKSGQVLLIPVT has soluble fraction (log2) that meets -0.1 or exceeds it?
not fulfilled

Further, for HMINVVDEVIKHLETNIISGFWAPGQKIDSEATLSKQLNVSRASIHTAIQQLIATGVLESFQGKGTFVRS ?
not fulfilled

Same question for HMNMIGDVIRNLRTVSSMTQTELGQRMGVIKQTISNWEKNISTPSIDAIVKLSSIFNVPTDYLL please.
not fulfilled

Repeat for the following sequence: HMDAISYTQFMEEAKQGRINKVEVQGRTLMVTPTDGKAYSLTSPGDLWMTTDLMKYGVNVYGAE
fulfilled

Please answer likewise for HMTGWINVDKNWYYMNNSGSMARGMINVNNVSYYLDENGKMLSNTTVNVNGTDYRIDASGAMSQI
not fulfilled

----------
For each of the sequences below, state its soluble fraction (log2).
test: soluble fraction after stress (log2 fold change); higher = more stays soluble; pooled small domains, quantitative proteomics; conditions: stress: 75 degC
Give bare numbers.

Worked set:
HMTEQKNNEQQNAVNEKKQALKQLMEKGKEKGSLSYNEVNALLDKLEFTEDQKAIVYDQLHSEDIELQ
0.3
HMGMGIGQIIKEKRTALKMTQNELAERLGVSQQSVTGWENNAAVPRESAVRGMMDIFGLSRNELFGEP
0.389
HMVTGSIYERKGIYYAIVSYYVDGRRKQKSVSTGLSVKGNKRRALEFLENLKRTYETKESMENMD
-3.79
HMADQVLVMTRAVGQGDIVRNADIGLTSVAVDRAVATIPASQLDKIVGRHALVDLSPGQLLGSHSVGE
0.147
HMFEDYLRMKGLSIVSFSKQTGIPISTLRNLNKIRYDKWKIRYLEELSNVLNKTIQEIIEELKNMG
-3.5
HMIHMNMGQKINQLRLQKGFTLEELGNLVGVGKSTVRKWENGMIANMKRDKILLVAEALDTSPAYLMGWD
-2.12
HMLFGKKYLGKVPNDASGRISLWNDIVKHHQELQNIRAIENFTSDNVTVAQGDTKKAVVVTDYVT
-0.286

Can you look up the measured soluble fraction (log2) of HMKNENSLLVSRLAEEKIINRAKLVLMEYLKLSEPQAHRYIEKQAMDLQISRAEVAARVLETYE for me?
-1.35

Cited source: the domain aggregation screens of Martell et al. (2025)
